Test system: Staphylococcus aureus
Assay Summary: Antimicrobial activity against Staphylococcus aureus ATCC 29513 at 500 ug/ml after 24 hrs by cup plate method
Assay type: functional
Study Conditions: ATCC 29513, 24 h, read-out: IZ
Form field: zone of inhibition at 500 µg/mL (one value per entry).

{"Compound": "Cc1ccc(C2=CC(c3c(-c4ccccc4)[nH]c4ccc(C)cc34)c3c(N)nc(=O)[nH]c3O2)cc1 (stereo unspecified)", "Target Of Assay": "Staphylococcus aureus", "zone of inhibition at 500 µg/mL, mm": 8}
{"Compound": "Cc1ccc(C2=CC(c3c(-c4ccccc4)[nH]c4ccc(Cl)cc34)c3c(N)nc(=S)[nH]c3O2)cc1 (stereo unspecified)", "Target Of Assay": "Staphylococcus aureus", "zone of inhibition at 500 µg/mL, mm": 6}
{"Compound": "N#CC1=C(N)OC(c2ccccc2)=CC1c1c(-c2ccccc2)[nH]c2ccccc12 (stereo unspecified)", "Target Of Assay": "Staphylococcus aureus", "zone of inhibition at 500 µg/mL, mm": 10}
{"Compound": "Cc1ccc(C2=CC(c3c(-c4ccccc4)[nH]c4ccc(C)cc34)C(C#N)=C(N)O2)cc1 (stereo unspecified)", "Target Of Assay": "Staphylococcus aureus", "zone of inhibition at 500 µg/mL, mm": 14}
{"Compound": "Nc1n[nH]c2c1C(c1c(-c3ccccc3)[nH]c3ccccc13)C=C(c1ccccc1)O2 (stereo unspecified)", "Target Of Assay": "Staphylococcus aureus", "zone of inhibition at 500 µg/mL, mm": 2}
{"Compound": "CN[C@@H]1[C@H](O[C@H]2[C@H](O[C@H]3[C@H](O)[C@@H](O)[C@H](N=C(N)N)[C@@H](O)[C@@H]3N=C(N)N)O[C@@H](C)[C@]2(O)C=O)O[C@@H](CO)[C@H](O)[C@H]1O", "Target Of Assay": "Staphylococcus aureus", "zone of inhibition at 500 µg/mL, mm": 15}
{"Compound": "Cc1ccc(C2=CC(c3c(-c4ccccc4)[nH]c4ccccc34)c3c(N)nc(=S)[nH]c3O2)cc1 (stereo unspecified)", "Target Of Assay": "Staphylococcus aureus", "zone of inhibition at 500 µg/mL, mm": 6}
{"Compound": "Cc1ccc(C2=CC(c3c(-c4ccccc4)[nH]c4ccccc34)c3c(N)n[nH]c3O2)cc1 (stereo unspecified)", "Target Of Assay": "Staphylococcus aureus", "zone of inhibition at 500 µg/mL, mm": 5}
{"Compound": "Cc1ccc(C2=CC(c3c(-c4ccccc4)[nH]c4ccccc34)c3c(nc[nH]c3=O)O2)cc1 (stereo unspecified)", "Target Of Assay": "Staphylococcus aureus", "zone of inhibition at 500 µg/mL, mm": 2}
{"Compound": "Cc1ccc(C2=CC(c3c(-c4ccccc4)[nH]c4ccc(C)cc34)c3c(nc4oc(=O)c(C#N)c(N)c4c3N)O2)cc1 (stereo unspecified)", "Target Of Assay": "Staphylococcus aureus", "zone of inhibition at 500 µg/mL, mm": 3}
{"Compound": "Nc1nc(=O)[nH]c2c1C(c1c(-c3ccccc3)[nH]c3ccc(Cl)cc13)C=C(c1ccccc1)O2 (stereo unspecified)", "Target Of Assay": "Staphylococcus aureus", "zone of inhibition at 500 µg/mL, mm": 3}
{"Compound": "Nc1nc(=O)[nH]c2c1C(c1c(-c3ccccc3)[nH]c3ccccc13)C=C(c1ccc(Cl)cc1)O2 (stereo unspecified)", "Target Of Assay": "Staphylococcus aureus", "zone of inhibition at 500 µg/mL, mm": 14}
{"Compound": "Cc1ccc2[nH]c(-c3ccccc3)c(C3C=C(c4ccc(Cl)cc4)Oc4[nH]c(=S)nc(N)c43)c2c1 (stereo unspecified)", "Target Of Assay": "Staphylococcus aureus", "zone of inhibition at 500 µg/mL, mm": 9}
{"Compound": "Nc1n[nH]c2c1C(c1c(-c3ccccc3)[nH]c3ccc(Cl)cc13)C=C(c1ccc(Cl)cc1)O2 (stereo unspecified)", "Target Of Assay": "Staphylococcus aureus", "zone of inhibition at 500 µg/mL, mm": 14}
{"Compound": "Cc1ccc2[nH]c(-c3ccccc3)c(C3C=C(c4ccc(Cl)cc4)Oc4[nH]c(=O)nc(N)c43)c2c1 (stereo unspecified)", "Target Of Assay": "Staphylococcus aureus", "zone of inhibition at 500 µg/mL, mm": 5}
{"Compound": "Cc1ccc2[nH]c(-c3ccccc3)c(C3C=C(c4ccc(Cl)cc4)OC(N)=C3C#N)c2c1 (stereo unspecified)", "Target Of Assay": "Staphylococcus aureus", "zone of inhibition at 500 µg/mL, mm": 6}
